Target: T1, MCL-1 (mouse, residues 152-308) (mouse)
T1 construct: remnant of thrombin cleavage at the N-terminus of MCL-1; MCL-1, mouse, residues 152-308, UniProt P97287; source: E. coli C41 pLysS, purified (Ni2+ agarose, thrombin cleavage, ion exchange, Superdex G75 gel filtration); not shown: His6, N-terminal, cleaved
T1 chain: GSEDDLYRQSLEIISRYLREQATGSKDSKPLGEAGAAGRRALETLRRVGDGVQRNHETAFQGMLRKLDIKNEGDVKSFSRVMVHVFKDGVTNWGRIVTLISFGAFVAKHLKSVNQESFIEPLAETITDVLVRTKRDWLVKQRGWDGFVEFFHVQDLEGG
Test: stopped-flow fluorescence kinetics + other: fluorescence dissociation kinetics with competitor; Kd calculated as the ratio koff/kon of the kinetic rate constants; 25 °C; 50 mM sodium phosphate, 0.05% (v/v) Tween 20, pH 7.0
Conditions: both partners purified
Where no end group is shown, it is not given here. The star is where a group is joined. TAMRA = 5-carboxytetramethylrhodamine, CN(C)c1ccc2c(-c3ccc(C(=O)*)cc3C(=O)[O-])c3ccc(=[N+](C)C)cc-3oc2c1
ATTRIBUTE_MEASURED: Kd (nM)
Return type: number; implicit unit nM.

For orientation, consider the following solved cases.
binder="{TAMRA}-SESQEEIIHNIARHLAQIGDEMDGNIQPTLVRQLA (peptide, UniProt P70444 76-110, looked up, BID, mouse, residues 76-110, UniProt P70444; source: synthetic peptide (Biomatik)) [BID H99G peptide, TAMRA-labelled]" readout_unit=nM measured_value=0.4
binder="{TAMRA}-SESQEEIIHNIARHLAQIGDEMDHNIQPTLVRQLA (BID, mouse, residues 76-110, UniProt P70444; also called WT; source: synthetic peptide (Biomatik)) [BID peptide (mouse, residues 76-110), TAMRA-labelled]" readout_unit=nM measured_value=0.33
binder="{TAMRA}-SESQEEAIHNIARHLAQIGDEMDHNIQPTLVRQLA (peptide, UniProt P70444 76-110, looked up, BID, mouse, residues 76-110, UniProt P70444; source: synthetic peptide (Biomatik)) [BID I82A peptide, TAMRA-labelled]" readout_unit=nM measured_value=0.65
binder="{TAMRA}-SESQEEIIHNIARHLAQAGDEMDHNIQPTLVRQLA (peptide, UniProt P70444 76-110, looked up, BID, mouse, residues 76-110, UniProt P70444; source: synthetic peptide (Biomatik)) [BID I93A peptide, TAMRA-labelled]" readout_unit=nM measured_value=96
binder="{TAMRA}-SESQEEIIHNIAAHLAQIGDEMDHNIQPTLVRQLA (peptide, UniProt P70444 76-110, looked up, BID, mouse, residues 76-110, UniProt P70444; source: synthetic peptide (Biomatik)) [BID R88A peptide, TAMRA-labelled]" readout_unit=nM measured_value=0.6

What Kd value was documented for this binder, {TAMRA}-SESQEEIIHNAARHLAQIGDEADHNIQPTLVRQLA (peptide, UniProt P70444 76-110, looked up, BID, mouse, residues 76-110, UniProt P70444; source: synthetic peptide (Biomatik)) [BID I86A-M97A peptide, TAMRA-labelled] ?
390
